tested on: STAT3; test: STAT3 activity in HeLa-STAT3-luc cells stimulated with IFN-γ (luciferase); type: cell-based; conditions: 25 μM, +IFNγ 25 U/ml
For each entry below, report its RLU 2 value.
Answer shape: numeric part, then the unit.

Name the recorded RLU 2 of the item COc1ccc(-c2coc3cc(O)cc(O[C@@H]4O[C@@H](C)[C@H](O)[C@@H](O)[C@H]4O)c3c2=O)cc1 [BR2, Biochanin A 5-O-α-L-rhamnoside] in your answer.
10163 RLU

Name the recorded RLU 2 of the item COc1ccc(-c2coc3cc(O[C@@H]4O[C@@H](C)[C@H](O)[C@@H](O)[C@H]4O)cc(O[C@@H]4O[C@@H](C)[C@H](O)[C@@H](O)[C@H]4O)c3c2=O)cc1 [BR1, Biochanin A-5,7-di-O-α-L-rhamnoside] in your answer.
12819 RLU

Name the recorded RLU 2 of the item C[C@@H]1O[C@@H](Oc2cc(O)cc3c2C(=O)CC(c2ccc(O)cc2)O3)[C@H](O)[C@H](O)[C@H]1O (mixture of isomers) [NR1, Naringenin-5-O-α-L-rhamnoside] in your answer.
8301 RLU

---

tested on: NF-κB; assay: NF-κB activity in NIH3T3-KBF-Luc cells stimulated with TNFα (luciferase); format: cell-based; settings: 10 μM, +30 ng/ml TNFα
For each entry below, report its RLU specific value.
State the answer as a number, implicitly in RLU.

Name the recorded RLU specific of the item COc1ccc(-c2coc3cc(O[C@@H]4O[C@@H](C)[C@H](O)[C@@H](O)[C@H]4O)cc(O[C@@H]4O[C@@H](C)[C@H](O)[C@@H](O)[C@H]4O)c3c2=O)cc1 [BR1, Biochanin A-5,7-di-O-α-L-rhamnoside] in your answer.
222040

Name the recorded RLU specific of the item COc1ccc(-c2coc3cc(O)cc(O[C@@H]4O[C@@H](C)[C@H](O)[C@@H](O)[C@H]4O)c3c2=O)cc1 [BR2, Biochanin A 5-O-α-L-rhamnoside] in your answer.
180300

Name the recorded RLU specific of the item C[C@@H]1O[C@@H](Oc2cc(O)cc3c2C(=O)CC(c2ccc(O)cc2)O3)[C@H](O)[C@H](O)[C@H]1O (mixture of isomers) [NR1, Naringenin-5-O-α-L-rhamnoside] in your answer.
93190

---

test system: NF-κB; assay: NF-κB activity in NIH3T3-KBF-Luc cells stimulated with TNFα (luciferase); format: cell-based; settings: 10 μM, +30 ng/ml TNFα
Parameter Measured: RLU MEAN (RLU)
State the answer as a number, implicitly in RLU.

Name the recorded RLU MEAN of the item COc1ccc(-c2coc3cc(O)cc(O[C@@H]4O[C@@H](C)[C@H](O)[C@@H](O)[C@H]4O)c3c2=O)cc1 [BR2, Biochanin A 5-O-α-L-rhamnoside] in your answer.
203663

Name the recorded RLU MEAN of the item COc1ccc(-c2coc3cc(O[C@@H]4O[C@@H](C)[C@H](O)[C@@H](O)[C@H]4O)cc(O[C@@H]4O[C@@H](C)[C@H](O)[C@@H](O)[C@H]4O)c3c2=O)cc1 [BR1, Biochanin A-5,7-di-O-α-L-rhamnoside] in your answer.
245403

Name the recorded RLU MEAN of the item C[C@@H]1O[C@@H](Oc2cc(O)cc3c2C(=O)CC(c2ccc(O)cc2)O3)[C@H](O)[C@H](O)[C@H]1O (mixture of isomers) [NR1, Naringenin-5-O-α-L-rhamnoside] in your answer.
130453

Name the recorded RLU MEAN of the item COc1ccc(-c2cc(=O)c3c(O)cc(O)cc3o2)cc1O in your answer.
407663

Name the recorded RLU MEAN of the item O=c1cc(-c2ccccc2)oc2cc(O)cc(O)c12 in your answer.
293273

Name the recorded RLU MEAN of the item CC1O[C@@H](Oc2cc(O)cc3oc(-c4ccccc4)cc(=O)c23)C(O)C(O)[C@H]1O (stereo partly drawn) [CR2, Chrysin-5-O-α-L-rhamnoside] in your answer.
155937

Name the recorded RLU MEAN of the item CC1O[C@@H](Oc2cc(O[C@@H]3OC(C)[C@H](O)C(O)C3O)c3c(=O)cc(-c4ccccc4)oc3c2)C(O)C(O)[C@H]1O (stereo partly drawn) [CR1, Chrysin-di-5,7-O-α-L-rhamnoside] in your answer.
166627
